molecular target: S. pombe Cid1 poly(U) polymerase (Schizosaccharomyces pombe); construct: purchased NEB M0337; experiment: Uncontrolled extension with natural and modified nucleotides by S. pombe Cid1 poly(U) polymerase (gel, RNA kinetic assay); format: biochemical; settings: 1 mM ribonucleotide, 0.1 units Yeast Inorganic Pyrophosphatase, 30 minutes at 37° C.
Sequence (O13833 whole entry): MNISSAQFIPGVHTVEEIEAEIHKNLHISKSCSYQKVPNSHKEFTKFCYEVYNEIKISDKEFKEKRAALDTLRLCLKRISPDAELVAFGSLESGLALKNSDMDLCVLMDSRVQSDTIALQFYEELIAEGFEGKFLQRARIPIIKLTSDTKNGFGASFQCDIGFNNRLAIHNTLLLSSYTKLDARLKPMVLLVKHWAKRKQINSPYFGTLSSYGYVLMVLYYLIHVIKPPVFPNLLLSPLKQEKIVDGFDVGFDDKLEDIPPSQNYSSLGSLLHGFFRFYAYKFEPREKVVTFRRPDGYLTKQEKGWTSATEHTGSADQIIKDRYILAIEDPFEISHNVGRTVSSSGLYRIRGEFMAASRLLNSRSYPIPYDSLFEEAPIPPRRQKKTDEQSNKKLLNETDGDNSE
measure: effect of inorganic pyrophosphatase supplementation on RNA synthesis by poly(U) polymerase

compound	result-value
Nc1ccn([C@@H]2O[C@H](COP(=O)(O)OP(=O)(O)OP(=O)(O)O)[C@@H](O)[C@H]2O)c(=O)n1 [rCTP]	minimally affected
O=c1ccn([C@@H]2O[C@H](COP(=O)(O)OP(=O)(O)OP(=O)(O)O)[C@@H](O)[C@H]2O)c(=O)[nH]1 [rUTP]	greatest enhancement
Nc1nc2c(ncn2[C@@H]2O[C@H](COP(=O)(O)OP(=O)(O)OP(=O)(O)O)[C@@H](O)[C@H]2O)c(=O)[nH]1 [rGTP]	minimally affected
Nc1ncnc2c1ncn2[C@@H]1O[C@H](COP(=O)(O)OP(=O)(O)OP(=O)(O)O)[C@@H](O)[C@H]1O [rATP]	greatest enhancement
